# target entity: mAChR M4 (Homo sapiens)
# Construct: expressed in transfected cells; host or cells: CHO-K1 cells stably transfected with M4 cDNA and chimeric G-protein Gqi5
# Sequence (P08173 whole entry): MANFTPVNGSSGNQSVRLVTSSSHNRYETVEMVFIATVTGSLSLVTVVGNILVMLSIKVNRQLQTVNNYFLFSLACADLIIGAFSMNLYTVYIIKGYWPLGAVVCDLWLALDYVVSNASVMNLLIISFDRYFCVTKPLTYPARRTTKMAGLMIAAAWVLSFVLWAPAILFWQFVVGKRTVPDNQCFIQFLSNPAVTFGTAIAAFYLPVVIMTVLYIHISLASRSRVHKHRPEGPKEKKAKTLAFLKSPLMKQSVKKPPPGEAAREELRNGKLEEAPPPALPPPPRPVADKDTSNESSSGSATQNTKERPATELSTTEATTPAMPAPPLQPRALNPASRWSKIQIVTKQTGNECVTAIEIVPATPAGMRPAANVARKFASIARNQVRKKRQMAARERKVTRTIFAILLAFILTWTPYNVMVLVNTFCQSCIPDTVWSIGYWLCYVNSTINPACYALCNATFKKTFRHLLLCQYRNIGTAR
# procedure text: mAChR M4 cell-based functional assay (calcium mobilization, potentiation of EC20 acetylcholine response)
# reported conditions: % ACh maximum at 30 μM
Classification field: Fulfilled = Emax at 30 µM at or over 70%; Not fulfilled = Emax at 30 µM under 70%.

>>> print(df.to_string())
                               smiles_record  assigned_label
 0  Cc1nnc2sc(C(=O)NCc3ccc(-c4cncc5ccccc45)cc3)c(N)c2c1C   Not fulfilled
 1  Cc1nnc2sc(C(=O)NC3CN(c4ncc(-c5ccccc5)s4)C3)c(N)c2c1C   Not fulfilled
 2   Cc1nnc2sc(C(=O)NCc3cccc(F)c3F)c(N)c2c1C       Fulfilled
 3  [2H]C([2H])(NC(=O)c1sc2nnc(C)c(C)c2c1N)c1ccc(S(=O)(=O)C(F)F)cc1       Fulfilled
 4  Cc1nnc2sc(C(=O)N3CC(F)(c4cccc(-c5cncnc5)c4)C3)c(N)c2c1C   Not fulfilled
 5  CC(=O)N1CC(NC(=O)c2sc3nnc(C)c(C)c3c2N)C1   Not fulfilled
 6        Cc1nnc2sc(C(=O)NCc3nccs3)c(N)c2c1C       Fulfilled
 7  COc1cccc(C(=O)N2CC(NC(=O)c3sc4nnc(C)c(C)c4c3N)C2)c1       Fulfilled
 8  CCCOC(=O)NC1CN(C(=O)c2sc3nnc(C)c(C)c3c2N)C1   Not fulfilled
 9  Cc1nnc2sc(C(=O)N3CC(NCc4ccc(F)cc4)C3)c(N)c2c1C   Not fulfilled
10  COc1ccccc1OC(=O)N1CC(NC(=O)c2sc3nnc(C)c(C)c3c2N)C1   Not fulfilled
11  Cc1nnc2sc(C(=O)N3CC(N=[N+]=[N-])(c4ccccc4)C3)c(N)c2c1C   Not fulfilled
12  COc1cccc(S(=O)(=O)C2CN(C(=O)c3sc4nnc(C)c(C)c4c3N)C2)c1   Not fulfilled
13  Cc1nnc2sc(C(=O)NCc3ccc(-c4cccnc4F)cc3)c(N)c2c1C   Not fulfilled
14  Cc1nnc2sc(C(=O)NCc3ccc(-c4ccccc4)cc3)c(N)c2c1C   Not fulfilled
15  Cc1nnc2sc(C(=O)N3CC(Sc4ccc(F)c(F)c4)C3)c(N)c2c1C   Not fulfilled
